viability at 48 h, 5 µM for assorted molecules
- Assay method text: Cytotoxicity against mouse Hepa-1c1c7 cells assessed as cell survival at 5 uM after 48 hrs by MTT assay
- Format: cell-based
- Test conditions: read-out: Activity
Express the result in % but write the number alone.

Param item = O=C1/C(=C/c2ccc(O)cc2)Oc2cc(O)ccc21 ; retrieve measured viability at 48 h, 5 µM.
100

Param item = COc1cc(OC)c2c(c1)OC(=O)/C2=C\c1ccccc1OC ; retrieve measured viability at 48 h, 5 µM.
118

Param item = COc1cc(OC)c2c(c1)O/C(=C\c1cccc(O)c1O)C2=O ; retrieve measured viability at 48 h, 5 µM.
88

Param item = COc1cc(OC)c2c(c1)O/C(=C\c1ccc(F)cc1)C2=O ; retrieve measured viability at 48 h, 5 µM.
93

Param item = COc1cccc(/C=C2\Oc3cc(O)cc(O)c3C2=O)c1 ; retrieve measured viability at 48 h, 5 µM.
112

Param item = O=C1Oc2ccc(O)cc2/C1=C/c1ccc(F)cc1 ; retrieve measured viability at 48 h, 5 µM.
101

Param item = COc1ccccc1/C=C1\C(=O)Oc2ccc(O)cc21 ; retrieve measured viability at 48 h, 5 µM.
92

Param item = COc1cc(OC)c2c(c1)O/C(=C\c1ccccn1)C2=O ; retrieve measured viability at 48 h, 5 µM.
92

* * *

- Assay method text: Induction of NQO1 activity in mouse Hepa-1c1c7 cells at 25 uM after 48 hrs relative to control
Value kind: fold change (FC)
When you answer, write just the number.

Record excerpt, results attached:
INSERT INTO measurements (compound, observed) VALUES
  ('COc1ccc(/C=C2\C(=O)Oc3ccc(O)cc32)cc1', 1.71),
  ('COc1cc(OC)c2c(c1)O/C(=C\c1ccc(C(F)(F)F)cc1)C2=O', 0.83),
  ('COc1ccc(/C=C2\Oc3cc(O)ccc3C2=O)cc1', 1.5),
  ('O=C1Oc2ccc(O)cc2/C1=C/c1cccc(O)c1', 1.83),
  ('O=C1/C(=C/c2ccccc2O)Oc2cc(O)ccc21', 2.11);

Param item = COc1cc(/C=C2\Oc3cc(O)cc(O)c3C2=O)cc(OC)c1OC ; retrieve measured fold change (FC).
1.6

Param item = COc1cc(OC)c2c(c1)O/C(=C\c1cccc(O)c1)C2=O ; retrieve measured fold change (FC).
2.07

Param item = COc1ccccc1/C=C1\Oc2cc(O)ccc2C1=O ; retrieve measured fold change (FC).
0.61

Param item = O=C1Oc2ccc(O)cc2/C1=C/c1ccccc1 ; retrieve measured fold change (FC).
1.37

Param item = COc1cc(OC)c2c(c1)O/C(=C\c1cnc3ccccc3c1)C2=O ; retrieve measured fold change (FC).
1.5

* * *

- Assay method text: Cytotoxicity against mouse Hepa-1c1c7 cells assessed as cell survival at 5 uM after 48 hrs by MTT assay
- Type: cell-based
- Test conditions: read-out: Activity
viability at 48 h, 5 µM for assorted compounds
Express the result in % but write the number alone.

Record excerpt, results attached:
INSERT INTO results (structure_smiles_string, scale_unit, observed) VALUES
  ('O=C1Oc2ccc(O)cc2/C1=C/c1cccc(F)c1', '%', 127),
  ('COc1cc(OC)c2c(c1)O/C(=C\c1ccccc1O)C2=O', '%', 102),
  ('O=C1/C(=C/c2ccccc2O)Oc2cc(O)cc(O)c21', '%', 102),
  ('COc1cc(OC)c2c(c1)O/C(=C\c1ccc(O)cc1O)C2=O', '%', 51),
  ('O=C1/C(=C/c2ccc(Cl)cc2)Oc2cc(O)cc(O)c21', '%', 93);

Param item = COc1cc(OC)c2c(c1)OC(=O)/C2=C\c1ccccc1Cl ; retrieve measured viability at 48 h, 5 µM.
90

Param item = COc1ccccc1/C=C1\Oc2cc(O)ccc2C1=O ; retrieve measured viability at 48 h, 5 µM.
95
